# System: bovine testicular HAase (Bos taurus)
# Sequence (Q2YDK3 36-553): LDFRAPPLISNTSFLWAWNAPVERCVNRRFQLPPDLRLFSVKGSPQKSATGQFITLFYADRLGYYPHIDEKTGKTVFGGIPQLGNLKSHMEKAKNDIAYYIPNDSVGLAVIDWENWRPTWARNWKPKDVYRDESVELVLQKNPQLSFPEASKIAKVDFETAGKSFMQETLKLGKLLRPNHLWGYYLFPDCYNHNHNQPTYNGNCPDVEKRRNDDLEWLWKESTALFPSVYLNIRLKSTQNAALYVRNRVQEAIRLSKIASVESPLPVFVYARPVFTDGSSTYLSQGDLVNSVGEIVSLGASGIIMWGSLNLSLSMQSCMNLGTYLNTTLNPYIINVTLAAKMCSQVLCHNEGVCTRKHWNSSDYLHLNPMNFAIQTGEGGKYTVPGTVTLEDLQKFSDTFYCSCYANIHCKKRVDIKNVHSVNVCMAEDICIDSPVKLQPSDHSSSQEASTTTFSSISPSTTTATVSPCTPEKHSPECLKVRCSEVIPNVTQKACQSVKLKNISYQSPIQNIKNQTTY
# Experimental protocol: Hyaluronidase inhibition assay
# Type: biochemical
# Experimental parameters: at 40 μg/mL
# Protocol: Inhibitory effect on bovine testicular HAase activity was evaluated using a reported method with minor modifications. […] The absorbance was then measured at a wavelength of 600 nm using a microplate reader (SpectraMax M2, Molecular Devices Corp., operated by SoftmaxPro v.4.6 software, Sunnyvale, CA, USA). […] The IC50 value of each sample was determined by analysing its inhibition rates at different concentrations with a nonlinear regression algorithm by GraphPad Prism.
The entries below are paired with their reported Inhibition (%) of HAase enzyme activity.
Hi! Could you send only the number? It should be in %, unit omitted.

Query for bovine testicular HAase (Bos taurus): what Inhibition (%) of HAase enzyme activity does the record show for CC1(C)CCC2(C(=O)O)CCC3(C)C(=CCC4C5(C)Cc6c([nH]c7c([N+](=O)[O-])cccc67)C(C)(C)C5CCC43C)C2C1 (stereo not drawn) ?
100.9

Query for bovine testicular HAase (Bos taurus): what Inhibition (%) of HAase enzyme activity does the record show for CC1(C)CCC2(C(=O)O)CCC3(C)C(=CCC4C5(C)Cc6c([nH]c7c(F)cc(F)cc67)C(C)(C)C5CCC43C)C2C1 (stereo not drawn) ?
86.3

Query for bovine testicular HAase (Bos taurus): what Inhibition (%) of HAase enzyme activity does the record show for CC1(C)CCC2(C(=O)O)CCC3(C)C(=CCC4C5(C)Cc6c([nH]c7ccc(Br)cc67)C(C)(C)C5CCC43C)C2C1 (stereo not drawn) ?
83.7

Query for bovine testicular HAase (Bos taurus): what Inhibition (%) of HAase enzyme activity does the record show for Cc1cc(C)c2[nH]c3c(c2c1)CC1(C)C(CCC2(C)C1CC=C1C4CC(C)(C)CCC4(C(=O)O)CCC12C)C3(C)C (stereo not drawn) ?
93.5

Query for bovine testicular HAase (Bos taurus): what Inhibition (%) of HAase enzyme activity does the record show for CC1(C)CCC2(C(=O)O)CCC3(C)C(=CCC4C5(C)Cc6c([nH]c7c(Cl)cccc67)C(C)(C)C5CCC43C)C2C1 (stereo not drawn) ?
98.1

Query for bovine testicular HAase (Bos taurus): what Inhibition (%) of HAase enzyme activity does the record show for CC1(C)CCC2(C(=O)O)CCC3(C)C(=CCC4C5(C)Cc6c([nH]c7c(Br)cccc67)C(C)(C)C5CCC43C)C2C1 (stereo not drawn) ?
100.6
